- System: methicillin-resistant S. aureus, ATCC 43300
- ASSAY_COMMENT: Minimum inhibitory concentration against MRSA
- Type: cell-based
- TEST_SETTINGS: methicillin-resistant S. aureus, ATCC 43300
Entries and their measured MIC, MRSA follow.
Write the value in µg/mL as a bare number.

Known results for compounds:
CC(=O)N[C@H]1[C@H](O[C@@H]2c3ccc(c(Cl)c3)Oc3cc4cc(c3O[C@@H]3O[C@H](CO)[C@@H](O)[C@H](O)[C@H]3NC(=O)CCCCCCC(C)C)Oc3ccc(cc3Cl)C[C@H]3NC(=O)[C@H](N)c5ccc(O)c(c5)Oc5cc(O)cc(c5)[C@H](NC3=O)C(=O)N[C@H]4C(=O)N[C@H]3C(=O)N[C@@H]2C(=O)N[C@H](C(=O)O)c2cc(O)cc(O[C@H]4O[C@H](CO)[C@@H](O)[C@H](O)[C@@H]4O)c2-c2cc3ccc2O)O[C@H](CO)[C@@H](O)[C@@H]1O [Teicoplanin A2-2, reference compound]; 0.5
CC(=O)N[C@H]1[C@H](O[C@@H]2c3ccc(c(Cl)c3)Oc3cc4cc(c3O[C@@H]3O[C@H](CO)[C@@H](O)[C@H](O)[C@H]3NC(=O)CCCCCCC(C)C)Oc3ccc(cc3Cl)C[C@H]3NC(=O)[C@H](N)c5ccc(O)c(c5)Oc5cc(c(Br)c(O)c5Br)[C@H](NC3=O)C(=O)N[C@H]4C(=O)N[C@H]3C(=O)N[C@@H]2C(=O)N[C@H](C(=O)O)c2cc(O)c(Br)c(O[C@H]4O[C@H](CO)[C@@H](O)[C@H](O)[C@@H]4O)c2-c2cc3ccc2O)O[C@H](CO)[C@@H](O)[C@@H]1O; 2
CCCCCC/C=C/c1cc2ccc1Oc1cc3cc(c1O[C@@H]1O[C@H](CO)[C@@H](O)[C@H](O)[C@H]1NC(=O)CCCCCCC(C)C)Oc1ccc(cc1Cl)[C@@H](O[C@@H]1O[C@H](CO)[C@@H](O)[C@H](O)[C@H]1NC(C)=O)[C@@H]1NC(=O)[C@H](NC(=O)[C@@H]3NC(=O)[C@H]3NC(=O)[C@@H](C2)NC(=O)[C@H](N)c2ccc(O)c(c2)Oc2cc(O)cc3c2)c2ccc(O)c(c2)-c2c(O[C@H]3O[C@H](CO)[C@@H](O)[C@H](O)[C@@H]3O)cc(O)cc2[C@@H](C(=O)O)NC1=O; 4
CC(=O)N[C@H]1[C@H](O[C@@H]2c3ccc(c(Cl)c3)Oc3cc4cc(c3O[C@@H]3O[C@H](CO)[C@@H](O)[C@H](O)[C@H]3NC(=O)CCCCCCC(C)C)Oc3ccc(cc3-c3ccc(-c5ccccc5)cc3)C[C@H]3NC(=O)[C@H](N)c5ccc(O)c(c5)Oc5cc(O)cc(c5)[C@H](NC3=O)C(=O)N[C@H]4C(=O)N[C@H]3C(=O)N[C@@H]2C(=O)N[C@H](C(=O)O)c2c(Br)c(O)cc(O[C@H]4O[C@H](CO)[C@@H](O)[C@H](O)[C@@H]4O)c2-c2cc3ccc2O)O[C@H](CO)[C@@H](O)[C@@H]1O; 2

Then there is this compound:
Task item: May I ask what MIC, MRSA has been recorded for CC(=O)N[C@H]1[C@H](O[C@@H]2c3ccc(c(Cl)c3)Oc3cc4cc(c3O[C@@H]3O[C@H](CO)[C@@H](O)[C@H](O)[C@H]3NC(=O)CCCCCCC(C)C)Oc3ccc(cc3-c3ccoc3)C[C@H]3NC(=O)[C@H](N)c5ccc(O)c(c5)Oc5cc(O)c(-c6ccoc6)c(c5)[C@H](NC3=O)C(=O)N[C@H]4C(=O)N[C@H]3C(=O)N[C@@H]2C(=O)N[C@H](C(=O)O)c2cc(O)cc(O[C@H]4O[C@H](CO)[C@@H](O)[C@H](O)[C@@H]4O)c2-c2cc3ccc2O)O[C@H](CO)[C@@H](O)[C@@H]1O ?
Reply: 0.25
